So I've got a bunch of molecules here, and I need their log10 Kd values.
- Experimental target: UniProt:P08588
- Sequence (P08588 whole entry): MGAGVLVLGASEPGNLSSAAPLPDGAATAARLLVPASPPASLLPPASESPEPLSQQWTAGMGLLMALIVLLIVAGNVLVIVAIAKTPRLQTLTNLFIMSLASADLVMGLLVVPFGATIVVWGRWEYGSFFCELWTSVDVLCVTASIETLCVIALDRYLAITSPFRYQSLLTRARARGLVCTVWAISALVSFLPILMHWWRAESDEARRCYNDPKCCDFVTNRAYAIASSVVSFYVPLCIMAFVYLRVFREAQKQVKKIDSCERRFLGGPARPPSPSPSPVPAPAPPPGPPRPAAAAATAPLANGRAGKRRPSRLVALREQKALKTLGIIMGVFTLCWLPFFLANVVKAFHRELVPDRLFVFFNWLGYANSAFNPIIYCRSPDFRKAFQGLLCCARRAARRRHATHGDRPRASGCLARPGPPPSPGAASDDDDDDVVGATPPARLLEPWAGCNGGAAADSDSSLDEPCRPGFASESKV
- Assay method text: 3H-CGP12177 whole-cell binding, CHO cells expressing human beta1-adrenoceptor
- Parameters: expressed in transfected cells; host or cells: CHO cells
- Experimental context: 3H-CGP 12177 whole cell binding, log KD, mean ± s.e.mean, read-out: Beta 1 Log KD (converted)
- Description: The selectivity of a ligand is given by the ratio of beta-1 to beta-2 KD.
Recall that a logarithmic scale is used here: each number is log10 of Kd in nM.

Please state, for each entry, its recorded log10 Kd.
1. Nc1ccccc1NC(=O)NCCNCC(O)COc1ccc(OCCOC2CCCC2)cc1 (centres unmarked) [60a]
2. Nc1ccc(C(=O)NCCNCC(O)COc2ccc(OCCOC3CCCC3)cc2)cc1 (centres unmarked) [62d]

Response given:
1.88
1.14

* * *

So I've got a bunch of compounds here, and I need their Kd values.
- Experimental target: human beta2-adrenoceptor (Homo sapiens)
- Construct: expressed in transfected cells; host or cells: CHO cells
- Sequence (P07550 whole entry): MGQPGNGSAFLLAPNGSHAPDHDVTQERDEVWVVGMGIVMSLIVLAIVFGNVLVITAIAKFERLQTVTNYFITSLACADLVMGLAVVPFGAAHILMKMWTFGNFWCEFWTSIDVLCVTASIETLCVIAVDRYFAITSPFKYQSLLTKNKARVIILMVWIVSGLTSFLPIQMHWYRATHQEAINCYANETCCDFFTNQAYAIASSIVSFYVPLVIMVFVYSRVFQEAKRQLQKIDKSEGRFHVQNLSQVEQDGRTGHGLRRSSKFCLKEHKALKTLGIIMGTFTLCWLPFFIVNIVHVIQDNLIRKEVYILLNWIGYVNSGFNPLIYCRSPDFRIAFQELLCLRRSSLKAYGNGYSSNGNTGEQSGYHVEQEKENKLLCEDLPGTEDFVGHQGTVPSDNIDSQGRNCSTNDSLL
- Assay method text: 3H-CGP12177 whole-cell binding, CHO cells expressing human beta2-adrenoceptor
- Experimental context: 3H-CGP 12177 whole cell binding, log KD, mean ± s.e.mean, read-out: Beta 2 Log KD (converted)
One number for each entry, in nM.

Some entries whose results are on file:
* O=C(Cc1ccccc1Cl)NCCNCC(O)COc1ccc(OCCOC2CCCC2)cc1 (stereo not shown) [62j] | 57.5
* NC(=O)c1cccc(OCCNCC(O)COc2ccc(OCCOC3CCCC3)cc2)c1 (stereo not shown) [67b] | 1000
* O=C(NCCNC[C@@H](O)COc1ccc(OCCOC2CCCC2)cc1)Nc1cccc(Cl)c1 [(R)-47l] | 5890

Then this compound:
Challenge: Provide measured Kd value, entry: OC(CNCCOc1cccc(Cl)c1)COc1ccc(OCCOC2CCCC2)cc1 (stereo not shown) [65a]
Response given: 776

* * *

- Experimental target: human beta3-adrenoceptor (Homo sapiens)
- Construct: expressed in transfected cells; host or cells: CHO cells
- Sequence (P13945 whole entry): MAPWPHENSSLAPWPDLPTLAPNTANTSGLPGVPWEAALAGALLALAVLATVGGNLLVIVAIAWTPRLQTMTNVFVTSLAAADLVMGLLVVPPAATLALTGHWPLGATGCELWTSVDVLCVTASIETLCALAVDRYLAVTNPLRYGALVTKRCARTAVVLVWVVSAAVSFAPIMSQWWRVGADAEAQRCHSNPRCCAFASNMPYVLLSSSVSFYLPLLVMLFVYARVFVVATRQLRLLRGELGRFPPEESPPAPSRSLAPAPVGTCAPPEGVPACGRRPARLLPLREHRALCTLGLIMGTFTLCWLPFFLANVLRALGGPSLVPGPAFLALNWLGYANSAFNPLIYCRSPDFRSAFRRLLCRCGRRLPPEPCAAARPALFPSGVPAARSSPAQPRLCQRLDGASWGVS
- Assay method text: 3H-CGP12177 whole-cell binding, CHO cells expressing human beta3-adrenoceptor
- Experimental context: 3H-CGP 12177 whole cell binding, log KD, mean ± s.e.mean, read-out: Beta 3 Log KD (converted)
So I've got a bunch of compounds here, and I need their Kd values.
Answers are plain numbers, in µM.

Some entries whose results are on file:
* Cc1cccc(NC(=O)NCCNCC(O)COc2ccc(OCCOC3CCCC3)cc2)c1 (stereo not shown) [47c] | 17.4
* O=C(NCCNCC(O)COc1ccc(OCCOC2CCCC2)cc1)Nc1ccccc1C(F)(F)F (stereo not shown) [47q] | 24
* O=C(Cc1cccc(O)c1)NCCNCC(O)COc1ccc(OCCOC2CCCC2)cc1 (stereo not shown) [54j] | 2.51

Please state, for each entry, its recorded Kd.
1. COc1cccc(NC(=O)NCCNCC(O)COc2ccc(OCCOC3CCCC3)cc2)c1 (stereo not shown) [47f]
2. O=C(NCCNCC(O)COc1ccc(OCCOC2CCCC2)cc1)Nc1ccc(F)c(F)c1 (stereo not shown) [54a]
3. O=C(NCCNCC(O)COc1ccc(OCCOC2CCCC2)cc1)Nc1cccc(Br)c1 (stereo not shown) [47o]
4. O=C(NCCNCC(O)COc1ccc(OCCOCC2CC2)cc1)Nc1ccc(OCc2ccccc2)cc1 (stereo not shown) [45a]

Response given:
1. 17.4
2. 8.91
3. 10.2
4. 1.78
